Molecular target: human XIAP-BIR3 protein (residues 241-356) (Homo sapiens, UniProt P98170)
Sequence (P98170 241-356): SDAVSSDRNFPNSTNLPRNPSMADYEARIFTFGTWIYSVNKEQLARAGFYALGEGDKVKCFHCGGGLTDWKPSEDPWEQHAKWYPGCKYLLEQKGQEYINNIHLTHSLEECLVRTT
Test: biochemical
pKi: −log10 of the molar value.
result type: pKi

Q: Determine its reported pKi: CCC(CC)CNC(=O)[C@@H]1CC[C@@H]2CC[C@H](NC(=O)[C@H](C)N)C(=O)N21
A: < 3.70
